Please respond with reported pIC50 for every item in the list.
biological target: 2,3-epoxysqualene-lanosterol cyclase (Candida albicans, UniProt Q04782); construct: there was obtained a cell-free extract (CFE) as the supernatant; endogenous in cells; host or cells: Candida albicans culture (cell-free extract, 10000 g supernatant of ruptured protoplasts); assay: Inhibition of 2,3-epoxysqualene-lanosterol cyclase from Candida albicans (14C-squalene epoxide, cell-free extract); assay type: biochemical
Sequence (Q04782 whole entry): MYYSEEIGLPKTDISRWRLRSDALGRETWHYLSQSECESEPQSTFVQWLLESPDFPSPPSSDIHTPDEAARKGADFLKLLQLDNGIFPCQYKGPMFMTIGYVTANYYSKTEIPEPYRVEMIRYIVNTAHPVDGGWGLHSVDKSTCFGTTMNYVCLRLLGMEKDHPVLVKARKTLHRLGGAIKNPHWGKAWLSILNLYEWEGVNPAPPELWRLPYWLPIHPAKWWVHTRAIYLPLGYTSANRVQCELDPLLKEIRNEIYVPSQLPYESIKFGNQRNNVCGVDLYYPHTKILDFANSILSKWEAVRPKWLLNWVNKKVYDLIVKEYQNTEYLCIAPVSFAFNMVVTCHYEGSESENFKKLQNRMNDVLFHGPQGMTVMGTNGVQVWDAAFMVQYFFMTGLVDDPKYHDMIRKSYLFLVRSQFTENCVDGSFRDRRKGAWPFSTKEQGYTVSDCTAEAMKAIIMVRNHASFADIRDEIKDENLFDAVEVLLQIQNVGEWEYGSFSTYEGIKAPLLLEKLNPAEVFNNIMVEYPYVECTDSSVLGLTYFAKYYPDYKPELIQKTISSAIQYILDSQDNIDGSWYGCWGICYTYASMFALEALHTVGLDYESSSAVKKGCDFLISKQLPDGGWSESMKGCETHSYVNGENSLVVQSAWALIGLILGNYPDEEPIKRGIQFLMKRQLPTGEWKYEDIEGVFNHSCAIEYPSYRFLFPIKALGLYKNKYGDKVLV
pIC50 (log units): -log10 of the concentration in mol/L.

Using the record for `C=CCN(C)CCCCCCc1ccc(C(=O)c2ccc(Br)cc2)cc1` , state its measured pIC50.
6.64

Using the record for CN(C)CCCCCCCc1ccc(C(=O)c2ccccc2)cc1 [Compound 1, 4-[7-(dimethylamino)heptyl]benzophenone] , state its measured pIC50.
6.28

Using the record for `C=CCN(C)CCCCCCCc1ccc(C(=O)c2ccccc2)cc1` , state its measured pIC50.
6.84

Using the record for `C=CCN(C)CCCCCCCc1ccc(C(=O)c2ccc(C#N)cc2)cc1` , state its measured pIC50.
6.80

Using the record for `C=CCN(C)CCCCCCCc1ccc(C(=O)c2ccc(Br)cc2)cc1` , state its measured pIC50.
6.35

* * *

biological target: 2,3-epoxysqualene-lanosterol cyclase (Candida albicans); construct: there was obtained a cell-free extract (CFE) as the supernatant; endogenous in cells; host or cells: Candida albicans culture (cell-free extract, 10000 g supernatant of ruptured protoplasts); assay: Inhibition of 2,3-epoxysqualene-lanosterol cyclase from Candida albicans (14C-squalene epoxide, cell-free extract); assay type: biochemical; settings: C. albicans cell-free extract, pH 6.9, 30°, 1 hour; read-out: IC50 (converted)
Counter-ions that a name gives are not always drawn.
# label = condition met if IC50 < 1000 nM else condition not met

Criterion: IC50 strictly below 1000 nM. Is it met by CN(C)CCCCCCCc1ccc(C(=O)c2ccc(F)cc2F)cc1 [Compound 5] ?
condition not met

Criterion: IC50 strictly below 1000 nM. Is it met by CN(C)CCCc1ccc(C(=O)CCc2ccc([N+](=O)[O-])cc2)cc1 [Compound 11] ?
condition met

Criterion: IC50 strictly below 1000 nM. Is it met by CN(C)CCCc1ccc(C(=O)CCc2ccc(F)cc2)cc1 [Compound 8] ?
condition not met

Criterion: IC50 strictly below 1000 nM. Is it met by CN(C)CCCCCCCc1ccc(C(=O)c2ccc(C#N)cc2)cc1 [Compound 20] ?
condition met

Criterion: IC50 strictly below 1000 nM. Is it met by CN(C)CCCCCCCc1ccc(C(=O)c2ccc(Cl)cc2)cc1 [Compound 17] ?
condition not met

Criterion: IC50 strictly below 1000 nM. Is it met by CN(C)CCCc1ccc(C(=O)CCc2ccc(Cl)cc2)cc1 [Compound 7, hydrochloride] ?
condition not met

Criterion: IC50 strictly below 1000 nM. Is it met by CN(C)CCCc1ccc(C(=O)CCc2cccc(Cl)c2)cc1 [Compound 10] ?
condition not met

Criterion: IC50 strictly below 1000 nM. Is it met by CN(C)CCCCCCc1ccc(C(=O)c2ccc([N+](=O)[O-])cc2)cc1 [Compound 28] ?
condition met

Criterion: IC50 strictly below 1000 nM. Is it met by CN(C)CCCCCCCc1ccc(C(=O)c2ccc(F)cc2)cc1 [Compound 3] ?
condition not met

* * *

biological target: 2,3-epoxysqualene-lanosterol cyclase (Candida albicans); construct: there was obtained a cell-free extract (CFE) as the supernatant; endogenous in cells; host or cells: Candida albicans culture (cell-free extract, 10000 g supernatant of ruptured protoplasts); experiment: Inhibition of 2,3-epoxysqualene-lanosterol cyclase from Candida albicans (14C-squalene epoxide, cell-free extract); assay type: biochemical; details: C. albicans cell-free extract, pH 6.9, 30°, 1 hour; read-out: IC50 (converted)
metric.name: IC50 (nM)
The answer is to be given in nM; state only the numeric part.

Using the record for `CN(C)CCCc1ccc(C(=O)c2ccccc2)cc1` , state its measured IC50.
18700

Using the record for `CN(C)CCCCCCCc1ccc(C(=O)c2ccc(Cl)cc2Cl)cc1` , state its measured IC50.
1910

Using the record for `CN(C)CCCCCCc1ccc(C(=O)c2cccc(Br)c2)cc1` , state its measured IC50.
1080

Using the record for `CN(C)CCCCCCCc1ccc(C(=O)Cc2ccccc2)cc1` , state its measured IC50.
1420

Using the record for `CN(C)CCCCCCc1ccc(C(=O)c2ccccc2Cl)cc1` , state its measured IC50.
320

Using the record for `O=C(CCc1ccccc1)c1ccc(CCCN2CCCC2)cc1` , state its measured IC50.
1240

* * *

molecular target: 2,3-epoxysqualene-lanosterol cyclase (Candida albicans, UniProt Q04782); construct: there was obtained a cell-free extract (CFE) as the supernatant; endogenous in cells; host or cells: Candida albicans culture (cell-free extract, 10000 g supernatant of ruptured protoplasts); assay: Inhibition of 2,3-epoxysqualene-lanosterol cyclase from Candida albicans (14C-squalene epoxide, cell-free extract); format: biochemical; details: C. albicans cell-free extract, pH 6.9, 30°, 1 hour; read-out: IC50 (converted)
Where a name gives a salt, the structure may show the parent alone.
metric.name: log10 of IC50 (log10 of the value in nM)
Heads up: the numbers are on a log10 scale; they represent IC50 in nM.

Using the record for CN(C)CCCCCCc1ccc(C(=O)c2ccc(Br)cc2)cc1 [Compound 25, hydrochloride] , state its measured log10 of IC50.
3.34

Using the record for `Cc1ccccc1C(=O)c1ccc(CCCCCCN(C)C)cc1` , state its measured log10 of IC50.
2.69

Using the record for `O=C(/C=C/c1ccccc1)c1ccc(CCCN2CCCC2)cc1` , state its measured log10 of IC50.
2.89

Using the record for `Cc1ccccc1CCC(=O)c1ccc(CCCN(C)C)cc1` , state its measured log10 of IC50.
2.55

Using the record for `CN(C)CCCc1ccc(C(=O)/C=C/c2ccc(Cl)cc2)cc1` , state its measured log10 of IC50.
3.56

Using the record for CN(C)CCCCCCCCc1ccc(C(=O)c2ccccc2)cc1 [Compound 15] , state its measured log10 of IC50.
3.08

Using the record for `CN(C)CCCCCCCc1ccc(C(=O)c2ccc(Br)cc2)cc1` , state its measured log10 of IC50.
3.33

Using the record for CN(C)CCCCCCCCc1ccc(C(=O)c2ccccc2)cc1 [Compound 16, 4-[8-(Dimethylamino)octyl]benzophenone] , state its measured log10 of IC50.
2.62

Using the record for `CN(C)CCCCCCCc1ccc(C(=O)c2ccc(C(F)(F)F)cc2)cc1` , state its measured log10 of IC50.
3.54
